Attribution: patent US5792882A

target: 5-lipoxygenase (LO) (Homo sapiens); construct: Aliquots of heparinized human whole blood (1 ml) from healthy donors; endogenous in cells; experiment: In vitro assay using heparinized human whole blood (HWB); conditions: calcium ionophore stimulated, 10 min preincubation at 37° C., read-out: IC50, inhibition of 5-lipoxygenase metabolism of arachidonic acid
Sequence (P09917 whole entry): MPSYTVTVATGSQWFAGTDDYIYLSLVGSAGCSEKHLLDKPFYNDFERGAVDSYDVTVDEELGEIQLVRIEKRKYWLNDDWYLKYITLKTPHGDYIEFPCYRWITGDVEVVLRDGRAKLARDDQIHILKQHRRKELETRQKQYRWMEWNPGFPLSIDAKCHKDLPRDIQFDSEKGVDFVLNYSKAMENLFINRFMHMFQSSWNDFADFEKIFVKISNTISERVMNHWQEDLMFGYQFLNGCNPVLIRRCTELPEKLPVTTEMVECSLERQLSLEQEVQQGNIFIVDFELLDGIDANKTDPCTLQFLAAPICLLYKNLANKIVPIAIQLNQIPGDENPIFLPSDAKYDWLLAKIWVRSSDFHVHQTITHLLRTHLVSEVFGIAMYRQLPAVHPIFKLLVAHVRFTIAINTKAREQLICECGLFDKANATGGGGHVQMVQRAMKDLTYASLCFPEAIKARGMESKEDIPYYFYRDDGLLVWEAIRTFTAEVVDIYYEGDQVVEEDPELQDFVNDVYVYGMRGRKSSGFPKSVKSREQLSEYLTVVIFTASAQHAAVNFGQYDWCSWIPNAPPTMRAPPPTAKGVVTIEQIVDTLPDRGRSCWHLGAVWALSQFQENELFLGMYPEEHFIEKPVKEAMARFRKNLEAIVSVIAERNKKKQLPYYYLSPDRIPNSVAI
Give measured IC50 for each item. Keep answers brief.

Illustrative cases are given below, each with its answer.
- Molecule: "NC(=O)N(O)C1C=C(c2cccc(Oc3ccc(F)cc3)c2)CC1 (single isomer, unassigned; (+))"
  System under test: "5-lipoxygenase (LO) (Homo sapiens)"
  IC50: "~500 nM"
- Molecule: "NC(=O)N(O)C1C=C(c2cccc(Oc3ccccc3)c2)CC1 (single isomer, unassigned; (+))"
  System under test: "5-lipoxygenase (LO) (Homo sapiens)"
  IC50: "~500 nM"

Let's switch to this molecule now.
Form field: reported IC50 of NC(=O)N(O)C1C=C(c2cccc(Oc3ccc(Cl)cc3)c2)CC1 (single isomer, unassigned; (+))
~500 nM
